Source listed as patent US20070249670A1.

TESTED_ON: human liver glycogen phosphorylase a (HLGPa) (Homo sapiens, UniProt P06737)
Construct: creating a full-length cDNA fused at the 5′ end to codons for methionine-glycine-alanine-histidine; 6xHis tag (leader Met-Gly-Ala-His6-Gly-Gly) (N); made in house; host or cells: E. coli (bacterial expression plasmid pTXK1007LTev)
Sequence (P06737 2-847 limits assumed): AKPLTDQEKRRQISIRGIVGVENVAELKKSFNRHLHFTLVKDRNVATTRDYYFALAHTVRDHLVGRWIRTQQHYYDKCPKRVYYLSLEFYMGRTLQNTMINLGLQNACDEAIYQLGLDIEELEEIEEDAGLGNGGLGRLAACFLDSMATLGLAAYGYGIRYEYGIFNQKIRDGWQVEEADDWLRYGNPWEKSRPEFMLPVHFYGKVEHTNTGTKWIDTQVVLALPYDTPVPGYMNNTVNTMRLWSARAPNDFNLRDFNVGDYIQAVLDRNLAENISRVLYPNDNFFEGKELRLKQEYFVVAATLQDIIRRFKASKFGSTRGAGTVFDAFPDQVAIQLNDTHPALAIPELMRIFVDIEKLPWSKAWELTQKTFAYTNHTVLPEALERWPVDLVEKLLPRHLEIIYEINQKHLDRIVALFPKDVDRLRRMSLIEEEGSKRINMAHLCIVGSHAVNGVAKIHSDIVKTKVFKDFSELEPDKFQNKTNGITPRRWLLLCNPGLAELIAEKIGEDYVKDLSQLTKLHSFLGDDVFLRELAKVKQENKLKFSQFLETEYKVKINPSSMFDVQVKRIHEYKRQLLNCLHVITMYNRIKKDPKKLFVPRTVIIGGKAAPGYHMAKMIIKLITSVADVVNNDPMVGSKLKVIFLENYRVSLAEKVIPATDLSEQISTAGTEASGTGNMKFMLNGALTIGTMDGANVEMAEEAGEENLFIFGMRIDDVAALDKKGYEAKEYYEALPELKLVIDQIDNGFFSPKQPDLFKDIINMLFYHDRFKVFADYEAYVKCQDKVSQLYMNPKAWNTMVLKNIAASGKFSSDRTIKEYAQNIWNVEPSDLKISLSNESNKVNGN
EXPERIMENT_NOTES: Human liver glycogen phosphorylase a enzymatic activity assay (coupled, fluorescent resorufin readout, with and without 10 mM glucose)
Format: biochemical
APPLIED_CONDITIONS: human liver glycogen phosphorylase a enzymatic activity assay
ATTRIBUTE_MEASURED: IC50 (µM)

• Cc1cccc(C)c1NC(=O)Nc1cc2ccccc2cc1C(=O)N[C@@H](Cc1cccs1)C(=O)O = 0.54

[a] Cc1cccc(Cl)c1NC(=O)Nc1cc2ccccc2cc1C(=O)N[C@@H](CCC(N)=O)C(=O)O
[b] COc1cc(NC(=O)Nc2c(C)cccc2Cl)c(C(=O)N[C@H](C(=O)O)C2CCCCC2)cc1OC
So which one has the bigger IC50 here, a or b ? Give the label under which the chosen entry appears. b

[a] Cc1cc(C)c(NC(=O)Nc2cc(F)ccc2C(=O)N[C@@](C)(C(=O)O)C2CCCCC2)c(C)c1
[b] C[C@](NC(=O)c1cc2ccccc2cc1NC(=O)Nc1c(Cl)cc(OC(F)(F)F)cc1Cl)(C(=O)O)C1CCCCC1
So which one has the bigger IC50 here, a or b ? Give the label under which the chosen entry appears. a
(a: 0.16 µM, b: 0.006 µM)
